assay-method-text: Dissociation constant, pKa corresponding to deprotonation of the basic substituent by potentiometric titration
Assay type: physicochemical

- chem-smiles: "Cc1cc(=O)c(O)c(CN2CCOCC2)n1C"
  pKa: 4.89
- chem-smiles: "O=c1cc(CN2CCCCC2)n(CCN2CCCCC2)cc1O"
  pKa: 7.58
- chem-smiles: "Cn1c(CO)cc(=O)c(O)c1CN1CCOCC1"
  pKa: 5.1
- chem-smiles: "Cc1cc(=O)c(O)c(CN2CCCCC2)n1C"
  pKa: 7.07
- chem-smiles: "CCc1c(O)c(=O)ccn1CCN1CCCCC1"
  pKa: 7.34
- chem-smiles: "Cn1c(CO)cc(=O)c(O)c1CN1CCCCC1"
  pKa: 6.74
